B1: tRNA (parent)
chain: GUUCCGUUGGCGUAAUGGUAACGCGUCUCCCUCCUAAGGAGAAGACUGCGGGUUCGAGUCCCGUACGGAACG

# Variants of: B1
# protocolDescription: yeast fitness relative to wild type (ratio to wild type); higher = fitter; tRNA-Arg(CCU), competitive growth, 37 C, YPD
Fewer inactive variants are shown than the library holds.
propertyName: yeast fitness

For record GUUCCGUUGGCGUAAUGGUAUCGCGUCUCCCUCCUAAGGAGAAGACUGCGGGUUCCAGUCCCACACCGUACG [A21U G56C G63A U64C G67C A69U] the listed yeast fitness is ≤ 0.5

GUUCGGUUCGCGCAAUGGUAGCGCGUCUCCCUCCUAAGGAGAAGACUGCGGGUUCGAGUCCCGUACGGAACG [C5G G9C U13C A21G] has a reported yeast fitness of ≤ 0.5

Per the records, this variant ( GUUCCGUUGGCGUAAUGGUAAGGCGUCUCCCUCCUAAGGAGAAGACUGCGGGUUCGACUCACGUACGGUACG [C22G G58C C61A A69U] ) has yeast fitness equal to ≤ 0.5

# yeast fitness of GUUCCGUUGGCGUAAUGGUAACGCGUCUCCCUCCAAAGGAGAAGACUGCGGGUUCGUGCCCCGUACGGAACG [U35A A57U U59C] = ≤ 0.5

The reported value for GUUCCGCUGGCGUAAUGAUAACGCGUCUCUCUCAUAAGGAGAAGACUGCGGGUUCGAGUCCCGUACGGAACG [U7C G18A C30U C34A] in terms of yeast fitness is ≤ 0.5

Notebook: GUUGCGUUGGCGUAAUGGUAACGCGUCUCCCUCCUUAGGAGAAGACUGCGGGUUCGAGUCCCGUAGGGAACG [C4G A36U C66G] , yeast fitness read as ≤ 0.5

response.value for GUUCCGUUGGCGUAAUGGUAACGAGUCUCCCUCCUAAGGAGAAGACUGCGGGUUCGAGUCCUGUACGGACCG [C24A C62U A70C] (field: yeast fitness) = ≤ 0.5

Note to self: yeast fitness recorded for GUUCCGUUGGCGUAAUGGUAAAGCGUCUCCCUCCUAAGGAGAAGACUGCGGGUUCGGGUACCGUACGGAACG [C22A A57G C60A] was ≤ 0.5

Lab book: yeast fitness of GUUCCGUUGGGGUAAUGGUAACGUGUCUCCCUCCUAAGGAGAAGACUGCGGGUUCGGGUCCCGUACGCAACG [C11G C24U A57G G68C] noted as ≤ 0.5

Sure, the documented yeast fitness for GUUCCGUUGGCGUAAAGGUAAUGCGCCUCCCUCCUAAGGAGAAGACUGCGGGUGCGAGUCCCGUGAGGAACG [U16A C22U U26C U54G A65G C66A] is ≤ 0.5

Lab book: yeast fitness of GUUCCGUUAGCGUAAUGGUAACGCGUCUCCCUCCUAAGGAGAAGACUGCGAGUUCGUGCCCCGUACGGAACG [G9A G51A A57U U59C] noted as ≤ 0.5

The measured yeast fitness associated with GUUCCGUUGGCGGAAUGGUAACGCGGCUCCCUGCUAAGGAGAAGACAGCGGGUUCGAGUCCCGUACGGAACG [U13G U26G C33G U47A] reads 0.602

In plain terms, GUUCGGUUGGCGUAAAGGUAACGCGUGUCCCUCCUAAGGAGCAGACUGCGGGUUCGAGUCCCGUCCGGAACG [C5G U16A C27G A42C A65C] has a documented yeast fitness of ≤ 0.5

// yeast fitness value for GUUACGUUGGCGUAAUCGUAACCCGUCUCCCUCCUAAGGAGAAGCCUGCGGGUUCGAGUCCCGUAUGGAACG [C4A G17C G23C A45C C66U] : ≤ 0.5

The variant listed as GUUCCGUUGGCGUAAUGGUAACGCGUCUCCCUCCUAAGAAGGAGACUGCGGGUUCGAGUCCCGUAUGGAACG [G39A A42G C66U] shows yeast fitness equal to ≤ 0.5

// recorded yeast fitness for GUUCCGUAGGCGUAAUGGUCACGCGUCUCCCUCCUAAGGAGAAGACUGCGGGUUCGAGUCCAGUACGGAACG [U8A A20C C62A] : ≤ 0.5

So for GUCCCGUAGGCGUAAUGGAAACGCGUCUCCCUCCUAAGGAGAAGACUGCGGGUUCGAGUCCCGUACGGAACG [U3C U8A U19A] , the logged yeast fitness turned out to be 0.63

Summary for this variant, GUUCCGUUGGCGGAAUGGUAACGCGUCUCCCUCCUAAGGAGAAGACUGCGGGUUCGAGUCCCCUACGGAACG [U13G G63C] : yeast fitness is 0.696

// GUUCCGUUGGCGAAAUGGUAACGCGUCUCCCUCCUAAGGAGAAGACUGCGGGUUCGAAUCCCGUACGGAACG [U13A G58A] : yeast fitness value = 1.06

Notebook: GUUCCGUUGGCGUAAUGGUAACGCGCCUCCCUCCUAUGGAGAAGUCUGCGGGUUCGAGUCCCAUACGGAACG [U26C A37U A45U G63A] , yeast fitness read as ≤ 0.5

Recorded yeast fitness (variant GUUCUGUUGGCGUAAUGGUAACGCGUCUGACUCCUAAGGAGAAGACUGCGGGUUCGAGUCCCAGACGGCACG [C5U C29G C30A G63A U64G A69C] ): 0.572

# yeast fitness (variant: GUUCCGGUGGCGCAAUGGUAACGCGUCUCCCUCCUAUGGAGAAGACUGCGGGUUCGAGUGCCGUACGGAACG [U7G U13C A37U C60G] ) is ≤ 0.5

yeast fitness for GUUCCGUUGGCGUAAUGGUAACGCGUCAACCUCCUAAGGAGAAGACUGCGGGUUCGAGUCCCGUACGGAACG [U28A C29A] is 0.598

The recorded yeast fitness for GAUCCGUUGGAGUAAUGGUAACGCGUCUCCCUCCUAACGAGAAGACUGCGGGUUCGAGUACCGUAUGGAACG [U2A C11A G38C C60A C66U] is ≤ 0.5

// yeast fitness lookup, variant = GUUACGUUGGCGUAACAGUAACGCGUCUCCCUCCUAAGGAGAAGACUGCGGGUUCAAGUCUCGUACGGAACG [C4A U16C G17A G56A C61U] , result: ≤ 0.5

The variant GUUCGGUUGGCGUAAUGGUAGCGCGUCUCCCCCCUAAGGAGAAGACAGCGGGUUCGAGUCCCGUACGAAACG [C5G A21G U32C U47A G68A] showed yeast fitness equal to ≤ 0.5

# variant GUUCAGUUGGCGUAAUGCUAACGCGUCUCCCUCCUAAGGAGAAGACUGCAGGUUCGAGUCCCGUACGGAACG [C5A G18C G50A] ; its yeast fitness = ≤ 0.5

yeast fitness for GCUCCGUUGGCGUAAUGGUAACGCGUCUCCCUCCUAAGGGGAAGACUGCGGGUACGAGUCCCGUACGGAACG [U2C A40G U54A] is ≤ 0.5

Reported yeast fitness for GUUCCGUUAGCGUAAUGGUAACGCGUCUCCAUCCUAAGGAGCAGACUGCGGGUUCGGGUCCCGUACGGAACG [G9A C31A A42C A57G] was 0.522

Quick note, yeast fitness for GUUCCGUUGGCGUAAUGGUCACGCGUCUCCGUCCUAAGGAGAAGACUGCGGGUUCGAGUCCCGUACGGAACG [A20C C31G] landed at 0.744

The recorded yeast fitness for entry GUUCCCCUCGCGUAAUGGUAACGCGUCUCCCUCCUAAGGAGAAGACUGCGGGUUCGAGUCCCGUAUGGAACG [G6C U7C G9C C66U] equals 0.546

GUUCCGUUGGCCUAAUGGUAACGCGUCACCCUCCUAAGGAGAAGACUGCAGGUUCGAGUCCCGUACGGAACG [G12C U28A G50A] yielded yeast fitness of 0.606

Measured yeast fitness of GUACCGUUGGCGUAAUGGUAACGCGUCUCUCUCCUAAGGAGAAGACUGCGGGUUCGAGUCCCGUACAGAACG [U3A C30U G67A] : 0.553

Field yeast fitness (entry GUUUCGUUGGCGUAAUGGUAACGCGUCUCCCUCCUAAGGAGAAGACUGCAGGUUCGAGUCCCGUACCGAACG [C4U G50A G67C] ) reads 0.578

The recorded yeast fitness for GUUCCGUUGGCGUAACGGUAACGGGUCUCCCACCUAAGGAGAAGACUGCGGGUUCAAGUCCCGUACGGAACG [U16C C24G U32A G56A] is 0.544

What the record says about GUUCCGUUGGCGUAAUGGUAACGGGUUUCCCUUCUAAGGAGAAGACUGCCGGUUCGAGUCCCGUACGGAACG [C24G C27U C33U G50C] : yeast fitness is ≤ 0.5

The recorded yeast fitness for GUUCCAUUGGCGUUAUGGUAACGCGUCUCCCUCCUAAGGAGAAGACUGCGGGUUCGGGUCCCGGACGGAACG [G6A A14U A57G U64G] is ≤ 0.5

Lab book: yeast fitness of GUUUCGUUGACGUAAUGGUAAGGCGUCUCCCUCCUAAGGAGAAGACUGCGGGUUCGAGUCCCGUACGGAACG [C4U G10A C22G] noted as 0.642

yeast fitness reported for this variant GUUCAGUUGGCGUAAUGGUAACGCGUCUCCCUCCUAAGGAGAAGACUGCGGGUACGAGUCCCGUACGGAACG [C5A U54A] : 0.699
